- assay-system: T1, O6-bP
- T1 chain: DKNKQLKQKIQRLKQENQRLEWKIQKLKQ
- assay-summary: two-hybrid library CCNG1;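 further: natural log of median RNA to DNA barcode read ratio; higher means stronger binding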
Below, each entry is listed alongside its reported interaction score.

binder	interaction score
DKIKQLKQEIQRLEQKNQRLKWKNQKLKQ [O4-bP]	-0.676
DEIQELEKEIEELERKIWELKKKNQELKR [4H48-bH]	-0.138
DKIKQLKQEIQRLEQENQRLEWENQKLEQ [O11-bP]	-0.577
DENKQLEQKNQRLKQKIQRLKWKIQKLKQ [O2-bP]	-0.766
